testProtocol: Plasma DTG pharmacokinetics (LC-MS/MS, NCA) in LM/Bc mice
Type: in vivo, mouse
testSettings: female, mouse, plasma, 750 mg/kg; non-pregnant LM/Bc mice; single oral dose DTG750; read-out: t½ (converted)
valueKind: half-life (h)
Numeric answer only, unit h assumed.

The recorded half-life for entry C[C@@H]1CCO[C@H]2Cn3cc(C(=O)NCc4ccc(F)cc4F)c(=O)c(O)c3C(=O)N12 equals 6.3

====

testProtocol: Plasma DTG pharmacokinetics (LC-MS/MS, NCA) in LM/Bc mice
Assay type: in vivo, mouse
testSettings: female, mouse, plasma, 750 mg/kg/day; pregnant LM/Bc mice; 10 daily oral doses DTG750 GD 0.5-GD 9.5; high Mg2+ soy diet; read-out: AUC 0-24
valueKind: AUC(0-t) (µg·h/mL)
The reply should be a number in µg·h/mL, with the unit left off.

The value of AUC(0-t) measured for the molecule C[C@@H]1CCO[C@H]2Cn3cc(C(=O)NCc4ccc(F)cc4F)c(=O)c(O)c3C(=O)N12 [DTG, Dolutegravir] turned out to be 847

====

testProtocol: Plasma DTG pharmacokinetics (LC-MS/MS, NCA) in LM/Bc mice
Assay type: in vivo, mouse
testSettings: female, mouse, plasma; non-pregnant LM/Bc mice; single oral dose DTG 750 mg/kg; high Mg2+ soy diet
Protocol: Baseline blood samples were collected via cheek bleed (submandibular vein) from all animals prior to timed matings, and again on GD 9.5. […] DTG detection and quantification was performed at Creighton University using a previously published method ([Bennetto-Hood et al., 2014]) with minor modifications. […] Pairwise comparisons of the proportion of affected embryos in each litter between strains and treatments were evaluated by the Fisher least significant difference method. […]
valueKind: Cmax
Please give the number followed by its unit.

Lab book: Cmax of C[C@@H]1CCO[C@H]2Cn3cc(C(=O)NCc4ccc(F)cc4F)c(=O)c(O)c3C(=O)N12 [DTG, Dolutegravir] noted as 133 µg/mL

====

testProtocol: Plasma DTG pharmacokinetics (LC-MS/MS, NCA) in LM/Bc mice
Format: in vivo, mouse
testSettings: female, mouse, plasma, 750 mg/kg; non-pregnant LM/Bc mice; single oral dose DTG750
valueKind: Tmax (h)
Could you give me the number in h? Just the number is fine.

Form: molecule = C[C@@H]1CCO[C@H]2Cn3cc(C(=O)NCc4ccc(F)cc4F)c(=O)c(O)c3C(=O)N12 [DTG, Dolutegravir] ; Tmax = 2

====

testProtocol: Plasma DTG pharmacokinetics (LC-MS/MS, NCA) in LM/Bc mice
Assay type: in vivo, mouse
testSettings: female, mouse, plasma; non-pregnant LM/Bc mice; single oral dose DTG 750 mg/kg; high Mg2+ soy diet; read-out: AUC 0-24
valueKind: AUC(0-t) (µg·h/mL)
Kindly provide the numeric value in µg·h/mL only, without the unit symbol.

C[C@@H]1CCO[C@H]2Cn3cc(C(=O)NCc4ccc(F)cc4F)c(=O)c(O)c3C(=O)N12 has a reported AUC(0-t) of 1300

====

testProtocol: Plasma DTG pharmacokinetics (LC-MS/MS, NCA) in LM/Bc mice
Assay type: in vivo, mouse
testSettings: female, mouse, plasma, 750 mg/kg/day; pregnant LM/Bc mice; 10 daily oral doses DTG750; read-out: t½ (converted)
valueKind: half-life (h)
Note: unit h is implicit; provide only the numeric part.

The compound C[C@@H]1CCO[C@H]2Cn3cc(C(=O)NCc4ccc(F)cc4F)c(=O)c(O)c3C(=O)N12 [DTG, Dolutegravir] showed half-life equal to 4.4
